Molecular target: GPR17 (Homo sapiens, UniProt Q13304)
Sequence (Q13304 whole entry): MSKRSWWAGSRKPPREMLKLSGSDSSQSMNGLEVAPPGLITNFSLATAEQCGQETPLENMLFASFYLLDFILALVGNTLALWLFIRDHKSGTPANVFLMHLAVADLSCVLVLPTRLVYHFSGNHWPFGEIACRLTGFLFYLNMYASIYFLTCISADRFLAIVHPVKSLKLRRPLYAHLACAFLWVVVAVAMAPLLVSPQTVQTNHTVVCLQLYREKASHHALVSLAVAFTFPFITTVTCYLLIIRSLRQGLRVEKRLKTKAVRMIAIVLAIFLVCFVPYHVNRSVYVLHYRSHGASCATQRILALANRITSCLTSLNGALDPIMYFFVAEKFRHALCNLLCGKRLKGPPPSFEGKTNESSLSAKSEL
Test: Calcium mobilization functional assay (GPR17 Ca2+ assay)
Assay type: cell-based
Parameters: host or cells: Flp-In T-REx CHO
Details: CHO hGPR17 cells, inhibition of 50 nM MDL29,951, Calcium 5 dye, FLIPR; read-out: Ca2+ assay pIC50 (converted)
measured_parameter: IC50

Worked examples follow.
O=S(=O)(Nc1ccc(Cl)cc1)c1c[nH]c2cc(Cl)ccc12 [Compound I-24]: > 31.6 nM
Cc1ccc(NS(=O)(=O)c2c[nH]c3cc(Cl)ccc23)cc1F [Compound I-7]: > 31.6 nM
N#Cc1ccc(NS(=O)(=O)c2c[nH]c3cc4c(cc23)OCO4)cc1 [Compound I-19]: > 31.6 nM

*Q* Report IC50 for COc1ccc2c(S(=O)(=O)Nc3ccc(C(F)(F)F)cc3F)c[nH]c2c1 [Compound I-287]
*A* < 3.16 nM

*Q* Report measured IC50; entry is C#Cc1ccc(NS(=O)(=O)c2c[nH]c3nc(OC)ccc23)c(F)c1 [Compound I-283]
*A* 3.16 to 31.6 nM

*Q* Output IC50 of COc1cccc(NS(=O)(=O)c2c[nH]c3cc(Cl)ccc23)n1 [Compound I-58]
*A* > 31.6 nM

*Q* Return IC50 for the following molecule: Cc1ccc2c(S(=O)(=O)Nc3ccc(Cl)cc3F)c[nH]c2c1 [Compound I-174]
*A* 3.16 to 31.6 nM

*Q* Quickly give me recorded IC50 for Cc1noc(C)c1-c1c(Cl)ccc2c(S(=O)(=O)Nc3cc(F)c(Cl)cc3F)c[nH]c12 [Compound I-250]
*A* 3.16 to 31.6 nM
